biological target: Beta-3 adrenergic receptor (Homo sapiens); test: Intrinsic activity against Beta3-AR expressed in CHO cells in cAMP-RIA assay; assay type: functional, cell-based
Property Label: IA

- COc1c(I)cc(CC2NCCc3cc(O)c(O)cc32)cc1I (stereo unspecified): 120
- COc1cc(C[C@@H]2NCCc3cc(O)c(O)cc32)cc(OC)c1OC: 95

A = COc1c(I)cc(CC2NCCc3c2ccc(O)c3Br)cc1I (stereo unspecified)
B = COc1c(I)cc(CC2NCCc3cc(O)ccc32)cc1I (stereo unspecified)
C = COc1c(I)cc(CC2NCCc3c2cc(I)c(O)c3I)cc1I (stereo unspecified)
D = COc1c(I)cc(CC2NCCc3c2ccc(O)c3I)cc1I (stereo unspecified)
Sort low-to-high on IA, please. Give your ranking as a list of the labels in the requested order. D, C, A, B

Source of measurements: ChEMBL document CHEMBL1133701
